Origin of measurements: patent US20120321590A1

EC50 overview
- Test system: genotype 1b (Con1) dicistronic subgenomic replicon
- experiment description: Transient replicon assay, genotype 1b
- Type: cell-based, HCV
- condition set: Hepatitis C virus, Huh-7, 96 h; Huh7-Lunet cells transfected with replicon RNA, cultured 4 days, luciferase activity
value kind: EC50 (nM)

compound="CS(=O)(=O)Nc1ccc2c(c1)S(=O)(=O)N=C(C1=C(O)C3C4C5C6C7C4C7C(C56)C3N(Cc3ccc(F)cc3)C1=O)N2 (racemic) [Example 10]" readout_units=nM reading_qualifier== recorded_number=1
compound="CS(=O)(=O)Nc1ccc2c(c1)S(=O)(=O)N=C(C1=C(O)[C@@H]3C4CC5CC(C4)CC(C5)[C@@H]3N(Cc3ccc(F)cc3)C1=O)N2 (racemic) [Example 5]" readout_units=nM reading_qualifier== recorded_number=11
compound="CS(=O)(=O)NCc1csc2c1S(=O)(=O)N=C(C1=C(O)[C@@H]3[C@H]4CC[C@H](C4)[C@@H]3N(Cc3ccc(F)cc3)C1=O)N2 [Example 19, reference compound]" readout_units=nM reading_qualifier== recorded_number=2
compound="CS(=O)(=O)Nc1ccc2c(c1)S(=O)(=O)N=C(C1=C(O)[C@H]3C4C5C6CC7C(C74)C(C65)[C@H]3N(Cc3ccc(F)cc3)C1=O)N2 [Example 3]" readout_units=nM reading_qualifier=> recorded_number=330
compound="CS(=O)(=O)NCc1csc2c1S(=O)(=O)N=C(C1=C(O)C3C4C5C6C7C4C7C(C56)C3N(Cc3ccc(F)cc3)C1=O)N2 (racemic) [Example 13]" readout_units=nM reading_qualifier== recorded_number=2

###

- Tested on: chimeric replicon containing the genotype 1b sequence for NS3 through NS5A and genotype 1a (H77) sequence for the NS5B region
- experiment description: Transient replicon assay, genotype 1a chimeric replicon
- Type: cell-based, HCV
- condition set: Huh7-Lunet cells transfected with chimeric replicon RNA, cultured 4 days, luciferase activity; read-out: EC50 1a
value kind: EC50 (nM)

molecule="CS(=O)(=O)NCc1csc2c1S(=O)(=O)N=C(C1=C(O)[C@@H]3C4C5C6CC7C4C7C(C65)[C@@H]3N(Cc3ccc(F)cc3)C1=O)N2 (racemic)" value_kind=EC50 readout_units=nM recorded_number=42

###

- Tested on: genotype 1b (Con1) dicistronic subgenomic replicon
- experiment description: Transient replicon assay, genotype 1b
- Format: cell-based, HCV
- condition set: Hepatitis C virus, Huh-7, 96 h; Huh7-Lunet cells transfected with replicon RNA, cultured 4 days, luciferase activity
pEC50: −log10 of the molar value.
pEC50 overview
value kind: pEC50

compound="CS(=O)(=O)Nc1ccc2c(c1)S(=O)(=O)N=C(c1c(O)c3cccn3n(Cc3ccc(F)cc3)c1=O)N2 [Example 21, reference compound]" value_kind=pEC50 recorded_number=7.89
compound="CS(=O)(=O)NCc1csc2c1S(=O)(=O)N=C(C1=C(O)[C@@H]3C4CC5CC(C4)CC(C5)[C@@H]3N(Cc3ccc(F)cc3)C1=O)N2 (racemic)" value_kind=pEC50 recorded_number=7.38
compound="CS(=O)(=O)Nc1ccc2c(c1)S(=O)(=O)N=C(C1=C(O)C3C4C5C6C4C4C6C5C4C3N(Cc3ccc(F)cc3)C1=O)N2 (racemic)" value_kind=pEC50 recorded_number=8.70
compound="CS(=O)(=O)Nc1ccc2c(c1)S(=O)(=O)N=C(C1=C(O)[C@@H]3[C@H]4CC[C@H](C4)[C@@H]3N(Cc3ccc(F)cc3)C1=O)N2 [Example 18, reference compound]" value_kind=pEC50 recorded_number=8.70
compound="CS(=O)(=O)Nc1ccc2c(c1)S(=O)(=O)N=C(C1=C(O)[C@@H]3C4C5C6CC7C4C7C(C65)[C@@H]3N(Cc3ccc(F)cc3)C1=O)N2 [Example 2]" value_kind=pEC50 recorded_number=9.00
compound="CS(=O)(=O)Nc1ccc2c(c1)S(=O)(=O)N=C(C1=C(O)[C@@H]3C4CCC(CC4)[C@@H]3N(Cc3ccc(F)cc3)C1=O)N2 [Example 20, reference compound]" value_kind=pEC50 recorded_number=9.22
compound="CS(=O)(=O)Nc1ccc2c(c1)S(=O)(=O)N=C(C1=C(O)[C@@H]3C4C5C6CC7C4C7C(C65)[C@@H]3N(Cc3ccc(F)cc3)C1=O)N2 (racemic) [Example 1]" value_kind=pEC50 recorded_number=8.70
compound="CS(=O)(=O)Nc1ccc2c(c1)S(=O)(=O)N=C(C1=C(O)[C@@H]3C4C5C6C7C4C7C(C65)[C@@H]3N(Cc3ccc(F)cc3)C1=O)N2 (some centres unmarked)" value_kind=pEC50 recorded_number=9.30
